target: recombinant human mGluR2 (Homo sapiens); experiment: FLIPR Ca2+ mobilization assay, potentiation of glutamate response at mGluR2; conditions: potentiation after addition of EC20 concentration of glutamate (900 nM); CHO dhfr- cells expressing human mGluR2 and Gα16
Sequence (Q14416 19-872): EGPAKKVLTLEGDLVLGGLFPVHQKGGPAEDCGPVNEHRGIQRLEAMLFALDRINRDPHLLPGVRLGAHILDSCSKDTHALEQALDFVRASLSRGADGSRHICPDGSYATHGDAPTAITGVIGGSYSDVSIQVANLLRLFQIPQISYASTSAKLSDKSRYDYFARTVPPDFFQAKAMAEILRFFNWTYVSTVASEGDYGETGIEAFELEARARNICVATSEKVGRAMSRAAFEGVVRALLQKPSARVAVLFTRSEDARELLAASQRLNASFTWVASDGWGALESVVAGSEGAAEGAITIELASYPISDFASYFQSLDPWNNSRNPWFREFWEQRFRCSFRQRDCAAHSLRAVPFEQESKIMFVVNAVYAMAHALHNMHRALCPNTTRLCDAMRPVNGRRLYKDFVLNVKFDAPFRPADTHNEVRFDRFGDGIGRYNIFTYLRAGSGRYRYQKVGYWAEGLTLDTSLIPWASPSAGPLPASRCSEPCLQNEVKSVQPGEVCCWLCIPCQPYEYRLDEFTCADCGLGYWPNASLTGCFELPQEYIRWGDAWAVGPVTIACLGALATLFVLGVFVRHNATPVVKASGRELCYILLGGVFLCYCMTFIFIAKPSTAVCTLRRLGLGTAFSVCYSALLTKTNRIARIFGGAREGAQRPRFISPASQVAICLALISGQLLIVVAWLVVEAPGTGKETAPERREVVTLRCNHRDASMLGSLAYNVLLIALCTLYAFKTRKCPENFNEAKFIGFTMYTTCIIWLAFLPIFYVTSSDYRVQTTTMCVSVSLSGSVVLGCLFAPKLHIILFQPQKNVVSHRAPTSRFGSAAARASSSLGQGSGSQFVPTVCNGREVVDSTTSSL
pEC50: −log10 of the molar value.

compound	pEC50
N#Cc1ccccc1-c1ccc2c(c1)sc(=O)n2Cc1ccc(Cl)cc1F	6.61
Cc1ccc(C(C)(C)O)cc1-c1ccc2c(n1)sc(=O)n2CC1CC1(F)F (stereo not shown)	6.82
N#Cc1cccnc1Oc1ccc2c(c1)sc(=O)n2CC1CC1(F)F (stereo not shown)	6.51
N#Cc1ccccc1-c1ccc2c(c1)sc(=O)n2CC1CC1(F)F (stereo not shown)	7.77
O=c1sc2cc(-c3cccc(N4CCS(=O)(=O)CC4)c3)ccc2n1CC1CC1	7.19
N#Cc1cc(Oc2ccc(C#N)c(-c3ccc4c(n3)sc(=O)n4CC3CC3(F)F)c2)ccn1 (stereo not shown)	7.82
CC(C)(C)Cn1c(=O)sc2nc(-c3ccccc3C#N)ccc21	7.47
